# Assay Name: inhibitors of mutant huntingtin aggregation, primary screen, imaging, exon1htt(103Q)mCFP cells, high-content imaging (AID 483);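 further: compound exposure lasted 3 days before fixation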
# Experimental Context: exon1htt(103Q)mCFP cell line, aggregate imaging, at 2 µM; stronger effect = higher value
Readout Name: inhibition of aggregation (%)

- Cc1ccc2cc(C(c3nnnn3CC3CCCO3)N3CCCC4(CCCCC4)C3)c(=O)[nH]c2c1 (stereo unspecified): 23.8
- CCSc1nnc(-c2cccs2)o1: -4.3
- CC1C=CC(C)C(C(=O)O)C1C(=O)O (stereo unspecified): 13
- N#CCCN1CCN(S(=O)(=O)c2ccc(S(=O)(=O)NC3CCCC3)cc2)CC1: -6.8
- N#CCCNCC1(c2ccccc2)CCCC1: -10.6
- CCOC(=O)C1CCN(C(=O)c2ccc(Cl)c(Cl)c2)CC1: 7.9

* * *

# Assay Name: inhibitors of mutant huntingtin aggregation, primary screen, imaging, exon1htt(103Q)mCFP cells, high-content imaging (AID 483);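 further: compound exposure lasted 3 days before fixation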;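 on nuclei count: percent of the per-plate median nuclei count of sample wells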
# Experimental Context: exon1htt(103Q)mCFP cell line, aggregate imaging, at 2 µM; measured here: cell count, toxicity
Readout Name: nuclei count

* CC(NC(=O)c1cc2c(=O)n(C)c3ccccc3c2n1C)c1ccc2c(c1)OCCO2 (stereo not drawn) | 139%
* Cc1ccccc1NC(=O)C1CCCN(S(=O)(=O)c2cnc[nH]2)C1 (stereo not drawn) | 109%
* COc1ccc(OC)c(-c2cc(C(=O)NCc3cccs3)no2)c1 | 101%
* O=C(NCc1ccccn1)C(C(=O)c1ccc(F)cc1)n1ccccc1=O (stereo not drawn) | 70.7%
* COc1cc(OC)c(C2N(C)c3ccccc3N2C)cc1OC | 111%
* N#C/C(=C(/O)CN1CCOCC1)c1nc2ccccc2s1 | 104%
* CN(C(=O)C1CCCO1)c1nnc(-c2ccncc2)s1 (stereo not drawn) | 103%
* O=C(Sc1nnnn1C1CCCCC1)c1cccs1 | 91.3%
* CCOC(=O)N1CCN(C(=O)CSCC(=O)Nc2nc(-c3ccc(OC)cc3)cs2)CC1 | 54%
* O=C(NCc1ccc2c(c1)OCO2)c1ccccn1 | 100%
* CN(Cc1ccccc1)C(=O)CNC(=O)Cn1cnc2ccccc2c1=O | 95.7%
* CC(=O)c1cccc(NC(=O)CCOc2ccccc2)c1 | 101%
* N#CCCN1CCN(S(=O)(=O)c2ccc(S(=O)(=O)NC3CCCC3)cc2)CC1 | 126%
* CC1CCc2c(sc(N)c2C(N)=O)C1 (stereo not drawn) | 88.3%
* CCSc1oc(-c2cccs2)nc1S(=O)(=O)c1ccccc1 | 101%
* CCS(=O)(=O)N1CCCC(C(=O)NCc2cccc(OC)c2)C1 (stereo not drawn) | 105%
* CCOC(=O)C1=C(C)NC(=O)NC1c1ccc(OCCO)c(OC)c1 (stereo not drawn) | 102%
* Cc1cc2cc(CN(CCCN3CCOCC3)C(=O)NC3CCCCC3)c(=O)[nH]c2cc1C | 93.3%
* C=CCn1c(COc2ccc(Cl)cc2)nnc1SCC(=O)N1CC(=O)Nc2ccccc21 | 104%
* COC(=O)c1nnn(-c2ccccc2)c1N | 92%
* COc1cc(NC(=O)c2cc(CC(C)C)on2)c(OC)cc1Cl | 95.8%
* COc1cc(C2CC(=O)NC3=C2C(=O)CC(C)(C)C3)ccc1O (stereo not drawn) | 101%
* O=C1CCCC2=C1C(c1cccc(Br)c1)n1nc(-c3ccco3)nc1N2 (stereo not drawn) | 100%

* * *

# Experimental System: Voltage-gated potassium channel subunit beta-2 (Rattus norvegicus) (UniProt P62483)
# Sequence (P62483 whole entry, looked up): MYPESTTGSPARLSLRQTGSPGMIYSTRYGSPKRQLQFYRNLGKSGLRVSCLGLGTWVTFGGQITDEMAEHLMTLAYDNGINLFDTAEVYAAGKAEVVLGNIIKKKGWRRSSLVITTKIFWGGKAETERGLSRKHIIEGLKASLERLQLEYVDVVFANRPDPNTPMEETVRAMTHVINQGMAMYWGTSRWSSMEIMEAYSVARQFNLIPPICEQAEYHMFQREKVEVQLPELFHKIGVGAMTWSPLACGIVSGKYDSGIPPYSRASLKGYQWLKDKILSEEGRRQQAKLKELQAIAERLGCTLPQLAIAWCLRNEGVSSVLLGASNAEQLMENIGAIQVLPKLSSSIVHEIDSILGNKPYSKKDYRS
# Assay Name: KvBeta enzyme negative modulators, primary screen, biochemical, NADPH fluorescence (AID 622);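 further: slope of raw intensity against log time taken from 70 to 1610 s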
# Experimental Context: recombinant KvBeta, 4-cyanobenzaldehyde reduction, at 10 µM, stronger effect = higher value
Readout Name: fluorescence slope

• CC(CCc1ccccc1)NC(=O)C1CCCN(c2nnc(-n3cccc3)s2)C1 (stereo unspecified) = -0.57
• O=C(Nc1cccc(O)c1)c1ccccc1 = -0.521
• CCCn1c(SCC(N)=O)nc2c(c1=O)C1(CCCC1)Cc1ccccc1-2 = -0.386
• CN1C(=O)NC(c2ccccc2)C2=C1CN(Cc1ccccc1)C2=O (stereo unspecified) = -0.501
• O=C(CSc1nnc2scc(-c3ccccc3)n12)Nc1nsc(-c2ccccc2)n1 = -0.381
• CC(NC(=O)OCc1ccccc1)C(=O)OCN1C(=O)c2ccccc2C1=O (stereo unspecified) = -0.391

* * *

# Experimental System: Voltage-gated potassium channel subunit beta-2 (Rattus norvegicus) (UniProt P62483)
# Assay Name: KvBeta positive modulators, primary screen, biochemical, NADPH fluorescence (AID 623);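 further: fluorescence intensity change per second fitted from 20 to 320 s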
# Experimental Context: Recombinant KvBeta, NADPH fluorescence decrease slope, 10 min; at 10 µM; stronger effect = lower value
Entries annotated with measured NADPH fluorescence slope
Readout Name: NADPH fluorescence slope

* O=C(c1ccc2c3c(cccc13)C(=O)N(O)C2=O)N1CCCCC1 | -3.2e-05
* CC1CCN(S(=O)(=O)c2cn(CC(=O)N3CCN(C)CC3)c(=O)c3ccccc23)CC1 | 5.5e-06
* CCCCn1c(CNC(=O)CCC)nc2ccccc21 | -4.3e-05
* Cc1ccc(S(=O)(=O)Cc2ccc(C(=O)N3CCN(Cc4ccccc4)CC3)o2)cc1 | -1.3e-05
* COc1ccc(-c2nc(CSCC(=O)N3CCc4ccccc4C3)c(C)o2)cc1OC | -1.8e-06

* * *

# Experimental System: Voltage-gated potassium channel subunit beta-2 (Rattus norvegicus)
# Assay Name: KvBeta positive modulators, primary screen, biochemical, NADPH fluorescence (AID 623);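 further: fluorescence intensity change per second fitted from 20 to 320 s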
# Experimental Context: Recombinant KvBeta, NADPH fluorescence decrease slope, 10 min; at 10 µM; stronger effect = lower value
Entries annotated with measured NADPH fluorescence slope
Readout Name: NADPH fluorescence slope

• N#Cc1c(N2CCCCC2)nc(N2CCCCC2)c2c1CCN(Cc1ccccc1)C2 = -9.2e-05
• Fc1ccc2[nH]c3c(N4CCSCC4)ncnc3c2c1 = -2.2e-05
• O=C(CCNS(=O)(=O)c1ccc(Cl)cc1)NCc1ccccn1 = 8.2e-06
• Cc1ccc(C)c(S(=O)(=O)n2cnc3ccccc32)c1 = 2.3e-05
• Cc1cccc(N2CCN(C(=O)c3cc4ccccc4oc3=O)CC2)c1C = -2.1e-05
• Cn1c(Cn2cnc3ccccc32)nc2ccccc21 = 9.8e-06
• COc1ccc(C(=O)NCC(=O)NC2=NCCS2)cc1 = -5.5e-05
• Cc1cc2c(c(=O)o1)C(CC(C)C)C(C#N)=C(N)O2 (centres undefined) = -5.8e-05
• CCOC(=O)C1CCN(c2ncnc3c2cnn3-c2ccc(Cl)cc2)CC1 = -1.8e-05
• O=C(Nc1ncccc1Cl)c1cccc(F)c1 = 1.2e-05
• COc1ccc(N2CC(=O)N(c3ccc(OC)c(OC)c3)CC2=O)cc1OC = -5.2e-05
• NC(=O)CSc1nnc2n(-c3ccccc3)c(=O)c3c4c(sc3n12)CCCCC4 = -0.000119
• CC1(C)Cc2c(C#N)c(N3CCN(C(=O)c4ccco4)CC3)nc(Cc3ccccc3)c2CO1 = 4.3e-05
• CCOC(=O)N1CCN(C(=O)CSc2cc(C)nc3c(-c4ccccc4OC)c(C)nn23)CC1 = 1.2e-05
• COC(=O)c1nnn(-c2ccccc2)c1N = -2.7e-05
• CCCCOCCCNC(=O)c1cccs1 = -2.3e-05
• O=C(O)CCn1[nH]c(=O)ccc1=O = 1.7e-06
• COc1ccc(OC)c(C2C(C(=O)Nc3ccc(F)cc3)=C(C)Nc3nc(CCCO)nn32)c1 (centres undefined) = 8.4e-06
• CCOC(=O)C(C)Sc1nnc(Cc2cc(=O)[nH]c(=O)[nH]2)n1-c1ccc(Cl)cc1 (centres undefined) = 5.1e-06
• C/C(=N\O)c1c(C)c2ccccc2n1C = -3.2e-05
• O=C(Nc1ccccc1)N1CCC(c2ccccc2)C1 (centres undefined) = -9.5e-06
• COc1ccccc1-c1nc2n(n1)C(c1cccs1)C(C(=O)Nc1cccnc1)=C(C)N2 (centres undefined) = -3.8e-05
• CCOC(=O)c1c2c(c(=S)n(-c3ccccc3)c1N)CCC2 = -9.5e-05
• COc1cc(OC)c2c(c1)OC(c1ccc(OC)c(OC)c1)C(O)C2=O (centres undefined) = -2.5e-05

* * *

# Assay Name: inhibitors of larval lipid processing in zebrafish, primary screen, whole organism, PED6 fluorescence, gall bladder and intestine (AID 686);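 further: larvae 5 to 7 days old with five fish per well; signal comes from phospholipase A2 cleavage of quenched PED6 carried via bile; overnight exposure to compound and PED6 before scoring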
# Experimental Context: Zebrafish larvae PED6 lipid processing, fluorescence scoring; screened at 20 µM (by protocol)
Calls of active or inactive are those of the source.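 The calls were made as follows: active = a full or partial loss of lipid-probe fluorescence in the fish gall bladder, intestine or both, judged by eye; inactive = no fluorescence loss, or compound toxic to the fish.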
Possible outcomes: active, inactive

- O=c1[nH]c2cnccc2n1-c1ccccc1: inactive
- CC12CN3CC(C)(CN(C1)C3c1ccc(Cl)cc1Cl)C2O (configuration not stated): inactive
- CC(C)Sc1nnc2n(CCc3ccccc3)c(=O)c3c4c(sc3n12)COC(C)(C)C4: inactive
- COc1cc(N2CCCC2)c(OC)cc1/C=c1/sc2nc3ccccc3n2c1=O: inactive
- CC(C)c1ccc(O)c(N)c1: inactive
- Cc1ccc(N2CC(C(=O)Nc3ccc(N(C)C)cc3)CC2=O)cc1C (configuration not stated): inactive
- COC(=O)C(NC(=O)c1ccc(F)cc1)(Nc1nc(C)cs1)C(F)(F)F (configuration not stated): inactive
- CC(C)C(=O)N1CCN(c2nc(-c3ccccc3)c3c(c2C#N)CC(C)(C)OC3)CC1: inactive
- Cn1c(N)c(C#N)c2c(c1=S)CSC(C)(C)C2: inactive
- CCC1SC2=NC(C)=C(C(=O)OCCOC)C(c3ccc(C(=O)OC)cc3)N2C1=O (configuration not stated): inactive
- CCCOc1cccc(C2/C(=C(/O)c3ccc(F)cc3)C(=O)C(=O)N2CCN(C)C)c1 (configuration not stated): inactive
- CC1(C)Cc2c(c(N3CCOCC3)nc3sc4c(NCc5ccco5)nnnc4c23)CS1: inactive
- CC1(C)C2CCC1(C)C(NC(=O)CCN1CCCCC1)C2 (configuration not stated): inactive
- Cc1cc2c(C)nc(Cc3ccccc3)nc2o1: inactive
- COCCNC(=O)C(C#N)c1nc2ccccc2nc1N1CCN(Cc2ccc3c(c2)OCO3)CC1 (configuration not stated): inactive
- CC(O)CNc1nc2c(c(=O)n(C)c(=O)n2C)n1Cc1cccc(C(F)(F)F)c1 (configuration not stated): inactive
- COC(=O)CSCC(=O)Nc1cc2c(cc1C(C)=O)OCO2: inactive
- O=C(Oc1oc(-c2ccco2)nc1C=Nc1ccccc1)c1ccco1: inactive
- COC(=O)c1[nH]c2ccc(Cl)cc2c1NC(=O)C1CC1: inactive
- COC(=O)NCC12CC3CC(C1)CC(CNC(=O)OC)(C3)C2: inactive
- Nc1c2c(nc3ccccc13)N(C1CCCCC1)CC2: inactive
- CCCCOC(=O)c1ccc(NC(=O)CSc2nncn2C)cc1: inactive
- CCOC(=O)NC(Nc1cc(C)on1)(C(F)(F)F)C(F)(F)F: inactive
- O=C(CN1CCc2[nH]c3ccccc3c2C1)N1CCCCC1: inactive
- Cc1nn(CC(N)=O)c(=O)c2ccccc12: inactive
- CN1CCN(c2c3c(c(C#N)c4nc5ccccc5n24)CCCC3)CC1: inactive
- CC1(C)Cc2c(C#N)c(N3CCN(C(=O)c4ccccc4)CC3)nc(-c3ccco3)c2CS1: inactive
- CCOC(=O)c1c2c(c(=S)n(-c3ccccc3)c1N)CCC2: inactive
- CCCCC(=O)c1c(C)cc(C)[nH]c1=O: inactive
- CC1(C)Cc2nc3sc4c(N(CCO)CCO)ncnc4c3cc2CO1: inactive
- CCCCOC(=O)CSC1=C(C#N)C(c2ccc3c(c2)OCO3)CC(=O)N1 (configuration not stated): inactive
- CCN(CC)c1nc(-c2cccc(OC)c2O)nc2ccccc12: inactive
- COc1ccc(C2NC(=O)NC(O)(C(F)(F)F)C2C(=O)c2ccc(F)cc2)cc1 (configuration not stated): inactive
- CCOC(=O)CSc1nnc2n(Cc3ccccc3)c(=O)c3c4c(sc3n12)CCC4: active
- COc1ccccc1C(=O)NCC(=O)n1nc(C)cc1C: inactive
- N#Cc1nc(-c2cccs2)oc1NCc1ccccc1: inactive
- COc1cccc(CNc2ncc(Br)cc2Br)c1O: inactive
- COc1ccc(C(=O)OC(C)CN2CCN(C)CC2)cc1OC (configuration not stated): inactive
- NC(=O)C1CCN(CCC(=O)Nc2ccc(Br)cc2)CC1: inactive
- O=C(NCCc1ccccc1)/C(=N\O)c1ccccc1: inactive
- CCC1(C)Cc2c(sc(NC(=O)CCC(=O)O)c2C#N)CO1 (configuration not stated): inactive
- CCSc1nnc(NC(=O)C(C(F)(F)F)C(F)(F)F)s1: inactive
- COc1nnnc2c1sc1nc(N3CCOCC3)c3c(c12)CC(C)(C)OC3: inactive
- O=c1cc(-c2ccco2)nc(-c2cccs2)o1: inactive
- CCOC(=O)c1c(N)sc(=S)c2c1CCC2: inactive
- COc1ccccc1NC(=O)Nc1nnc(C(C)C)s1: inactive
- CCN(CC)CCNc1ncnc2c1[nH]c1ccc(OC)cc12: inactive
